experiment: NCI Yeast Anticancer Drug Screen. Data for the mgt1 strain (AID 153); details: S. cerevisiae mgt1 mutant growth inhibition; at 33.0 µM; hits give high values
This is part of a sample that, as a whole, favours compounds with a hit. Of some 79,000 tested, about 15% had one in any assay.
Parameter Measured: growth inhibition (%)
# output: bare number, implied unit %

COc1ccc(OC)c(/C=C/[N+](=O)[O-])c1: 23

// field: growth inhibition; key: C[C@]12CC[C@H](O)CC1=CC[C@@H]1[C@@H]2CC[C@]2(C)C(=O)CC[C@@H]12 ; value = 52

// field: growth inhibition; key: CC1=C2C(=C[C@@](C)(CO)[C@@H]2O)C(=O)[C@](C)(O)C12CC2 ; value = 2

// field: growth inhibition; key: NC1=NCC(c2ccc(Cl)cc2)O1 (stereo not given) ; value = 5

// field: growth inhibition; key: O=c1oc2ccccc2c(O)c1C(c1ccc2c(c1)Cc1ccccc1-2)c1c(O)c2ccccc2oc1=O ; value = 97

// field: growth inhibition; key: OCC(O)C(O)CO (stereo not given) (tested in a mixture with another compound) ; value = 5

// field: growth inhibition; key: CCC1(OC(=O)CN)C(=O)OCc2c1cc1n(c2=O)Cc2cc3ccccc3nc2-1 (stereo not given) ; value = 80

// field: growth inhibition; key: CCCCCCCCCCCCCCCCP(=O)(O)OCC(N)C(=O)O (stereo not given) ; value = 43

// field: growth inhibition; key: O=C1NC(=S)NC(=O)C1=Cc1ccc([N+](=O)[O-])o1 ; value = 58

// field: growth inhibition; key: CS(=O)(=O)OCCN(CCOS(C)(=O)=O)c1ccc(C=O)cc1 ; value = 58

----------
test: NCI Yeast Anticancer Drug Screen. Data for the wt2 strain (AID 169);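 also: 0% = growth of vehicle-treated yeast cultures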; conditions: S. cerevisiae wt2 strain growth inhibition; at 3.7 µM; hits give high values
About 79,000 compounds went through this panel and 15% of them were active in at least one assay; those are over-represented in the sample as a whole.
Measured growth inhibition by item
# output: bare number, implied unit %

Consider the reported growth inhibition for these compounds:
C[C@]12CCC(=O)C=C1CC[C@@H]1C2CC[C@@]2(C)C1CC[C@@H]2OC(=O)C12OC1CCC2=O (some centres undefined): 9
COC1C(O)C(C)OC(OC2C(Oc3cccc4c(O)c5c(=O)oc6ccc(C)c7c(=O)oc(c34)c5c67)OC(C)C(O)C2O)C1O (centres undefined): 3
COc1ccc([N+]2=NC(c3ccc([N+](=O)[O-])cc3)=NN(c3ccccc3)C2)cc1: -1

Alright, here's another compound for you.
// field: growth inhibition; key: c1cc2c(cc1C1OC[C@H]3[C@@H](c4ccc5c(c4)OCO5)OC[C@@H]13)OCO2 (some centres undefined) ; value = 2

----------
assay: NCI Yeast Anticancer Drug Screen. Data for the mlh1 rad18 strain (AID 175); details: S. cerevisiae mlh1 rad18 strain growth inhibition; at 5.0 µM (retest, dose inferred, filed as 0.5); hits give high values
Compounds without any hit were thinned out: in the full panel of roughly 79,000, 15% have a hit.
Binary call on growth inhibition: yes (1) from 50% upward, no (0) beneath that.

O=[N+]([O-])c1cc([N+](=O)[O-])c(Cl)cc1F: yes (1)

Q: Check the entry C=CCOc1cc2c(ccc1=O)-c1c(cc(OC)c(OC)c1OC)CCC2NC(C)=O (stereo not drawn) : does growth inhibition equal or exceed 50%?
Result: no (0)

Q: Check the entry Fc1cccc(C2N(Cc3ccc(N(CCCl)CCCl)cc3Cl)CCCN2Cc2ccc(N(CCCl)CCCl)cc2Cl)c1 : does growth inhibition equal or exceed 50%?
Result: no (0)

Q: Check the entry C(=C/P(c1ccccc1)c1ccccc1)/P(c1ccccc1)c1ccccc1.C(=CP(c1ccccc1)c1ccccc1)P(c1ccccc1)c1ccccc1.[Pt] : does growth inhibition equal or exceed 50%?
Result: no (0)

Q: Check the entry COC1OC(COC(C)=O)C(OC(C)=O)C(OC(C)=O)[C]1(OC(C)=O)[Hg][O]C(C)=O (stereo not drawn) : does growth inhibition equal or exceed 50%?
Result: yes (1)

Q: Check the entry CCC[CH2][Sn]([F])([CH2]CCC)[O][Sn]([F])([CH2]CCC)[CH2]CCC : does growth inhibition equal or exceed 50%?
Result: no (0)

Q: Check the entry CSc1ncc(COP(=S)(OCc2cnc(SC)nc2N)OCc2cnc(SC)nc2N)c(N)n1 : does growth inhibition equal or exceed 50%?
Result: no (0)
